# Lookup of reported pIC50 keyed by entry
- measured target: DNA-dependent protein kinase catalytic subunit (Homo sapiens)
- Sequence (P78527 whole entry): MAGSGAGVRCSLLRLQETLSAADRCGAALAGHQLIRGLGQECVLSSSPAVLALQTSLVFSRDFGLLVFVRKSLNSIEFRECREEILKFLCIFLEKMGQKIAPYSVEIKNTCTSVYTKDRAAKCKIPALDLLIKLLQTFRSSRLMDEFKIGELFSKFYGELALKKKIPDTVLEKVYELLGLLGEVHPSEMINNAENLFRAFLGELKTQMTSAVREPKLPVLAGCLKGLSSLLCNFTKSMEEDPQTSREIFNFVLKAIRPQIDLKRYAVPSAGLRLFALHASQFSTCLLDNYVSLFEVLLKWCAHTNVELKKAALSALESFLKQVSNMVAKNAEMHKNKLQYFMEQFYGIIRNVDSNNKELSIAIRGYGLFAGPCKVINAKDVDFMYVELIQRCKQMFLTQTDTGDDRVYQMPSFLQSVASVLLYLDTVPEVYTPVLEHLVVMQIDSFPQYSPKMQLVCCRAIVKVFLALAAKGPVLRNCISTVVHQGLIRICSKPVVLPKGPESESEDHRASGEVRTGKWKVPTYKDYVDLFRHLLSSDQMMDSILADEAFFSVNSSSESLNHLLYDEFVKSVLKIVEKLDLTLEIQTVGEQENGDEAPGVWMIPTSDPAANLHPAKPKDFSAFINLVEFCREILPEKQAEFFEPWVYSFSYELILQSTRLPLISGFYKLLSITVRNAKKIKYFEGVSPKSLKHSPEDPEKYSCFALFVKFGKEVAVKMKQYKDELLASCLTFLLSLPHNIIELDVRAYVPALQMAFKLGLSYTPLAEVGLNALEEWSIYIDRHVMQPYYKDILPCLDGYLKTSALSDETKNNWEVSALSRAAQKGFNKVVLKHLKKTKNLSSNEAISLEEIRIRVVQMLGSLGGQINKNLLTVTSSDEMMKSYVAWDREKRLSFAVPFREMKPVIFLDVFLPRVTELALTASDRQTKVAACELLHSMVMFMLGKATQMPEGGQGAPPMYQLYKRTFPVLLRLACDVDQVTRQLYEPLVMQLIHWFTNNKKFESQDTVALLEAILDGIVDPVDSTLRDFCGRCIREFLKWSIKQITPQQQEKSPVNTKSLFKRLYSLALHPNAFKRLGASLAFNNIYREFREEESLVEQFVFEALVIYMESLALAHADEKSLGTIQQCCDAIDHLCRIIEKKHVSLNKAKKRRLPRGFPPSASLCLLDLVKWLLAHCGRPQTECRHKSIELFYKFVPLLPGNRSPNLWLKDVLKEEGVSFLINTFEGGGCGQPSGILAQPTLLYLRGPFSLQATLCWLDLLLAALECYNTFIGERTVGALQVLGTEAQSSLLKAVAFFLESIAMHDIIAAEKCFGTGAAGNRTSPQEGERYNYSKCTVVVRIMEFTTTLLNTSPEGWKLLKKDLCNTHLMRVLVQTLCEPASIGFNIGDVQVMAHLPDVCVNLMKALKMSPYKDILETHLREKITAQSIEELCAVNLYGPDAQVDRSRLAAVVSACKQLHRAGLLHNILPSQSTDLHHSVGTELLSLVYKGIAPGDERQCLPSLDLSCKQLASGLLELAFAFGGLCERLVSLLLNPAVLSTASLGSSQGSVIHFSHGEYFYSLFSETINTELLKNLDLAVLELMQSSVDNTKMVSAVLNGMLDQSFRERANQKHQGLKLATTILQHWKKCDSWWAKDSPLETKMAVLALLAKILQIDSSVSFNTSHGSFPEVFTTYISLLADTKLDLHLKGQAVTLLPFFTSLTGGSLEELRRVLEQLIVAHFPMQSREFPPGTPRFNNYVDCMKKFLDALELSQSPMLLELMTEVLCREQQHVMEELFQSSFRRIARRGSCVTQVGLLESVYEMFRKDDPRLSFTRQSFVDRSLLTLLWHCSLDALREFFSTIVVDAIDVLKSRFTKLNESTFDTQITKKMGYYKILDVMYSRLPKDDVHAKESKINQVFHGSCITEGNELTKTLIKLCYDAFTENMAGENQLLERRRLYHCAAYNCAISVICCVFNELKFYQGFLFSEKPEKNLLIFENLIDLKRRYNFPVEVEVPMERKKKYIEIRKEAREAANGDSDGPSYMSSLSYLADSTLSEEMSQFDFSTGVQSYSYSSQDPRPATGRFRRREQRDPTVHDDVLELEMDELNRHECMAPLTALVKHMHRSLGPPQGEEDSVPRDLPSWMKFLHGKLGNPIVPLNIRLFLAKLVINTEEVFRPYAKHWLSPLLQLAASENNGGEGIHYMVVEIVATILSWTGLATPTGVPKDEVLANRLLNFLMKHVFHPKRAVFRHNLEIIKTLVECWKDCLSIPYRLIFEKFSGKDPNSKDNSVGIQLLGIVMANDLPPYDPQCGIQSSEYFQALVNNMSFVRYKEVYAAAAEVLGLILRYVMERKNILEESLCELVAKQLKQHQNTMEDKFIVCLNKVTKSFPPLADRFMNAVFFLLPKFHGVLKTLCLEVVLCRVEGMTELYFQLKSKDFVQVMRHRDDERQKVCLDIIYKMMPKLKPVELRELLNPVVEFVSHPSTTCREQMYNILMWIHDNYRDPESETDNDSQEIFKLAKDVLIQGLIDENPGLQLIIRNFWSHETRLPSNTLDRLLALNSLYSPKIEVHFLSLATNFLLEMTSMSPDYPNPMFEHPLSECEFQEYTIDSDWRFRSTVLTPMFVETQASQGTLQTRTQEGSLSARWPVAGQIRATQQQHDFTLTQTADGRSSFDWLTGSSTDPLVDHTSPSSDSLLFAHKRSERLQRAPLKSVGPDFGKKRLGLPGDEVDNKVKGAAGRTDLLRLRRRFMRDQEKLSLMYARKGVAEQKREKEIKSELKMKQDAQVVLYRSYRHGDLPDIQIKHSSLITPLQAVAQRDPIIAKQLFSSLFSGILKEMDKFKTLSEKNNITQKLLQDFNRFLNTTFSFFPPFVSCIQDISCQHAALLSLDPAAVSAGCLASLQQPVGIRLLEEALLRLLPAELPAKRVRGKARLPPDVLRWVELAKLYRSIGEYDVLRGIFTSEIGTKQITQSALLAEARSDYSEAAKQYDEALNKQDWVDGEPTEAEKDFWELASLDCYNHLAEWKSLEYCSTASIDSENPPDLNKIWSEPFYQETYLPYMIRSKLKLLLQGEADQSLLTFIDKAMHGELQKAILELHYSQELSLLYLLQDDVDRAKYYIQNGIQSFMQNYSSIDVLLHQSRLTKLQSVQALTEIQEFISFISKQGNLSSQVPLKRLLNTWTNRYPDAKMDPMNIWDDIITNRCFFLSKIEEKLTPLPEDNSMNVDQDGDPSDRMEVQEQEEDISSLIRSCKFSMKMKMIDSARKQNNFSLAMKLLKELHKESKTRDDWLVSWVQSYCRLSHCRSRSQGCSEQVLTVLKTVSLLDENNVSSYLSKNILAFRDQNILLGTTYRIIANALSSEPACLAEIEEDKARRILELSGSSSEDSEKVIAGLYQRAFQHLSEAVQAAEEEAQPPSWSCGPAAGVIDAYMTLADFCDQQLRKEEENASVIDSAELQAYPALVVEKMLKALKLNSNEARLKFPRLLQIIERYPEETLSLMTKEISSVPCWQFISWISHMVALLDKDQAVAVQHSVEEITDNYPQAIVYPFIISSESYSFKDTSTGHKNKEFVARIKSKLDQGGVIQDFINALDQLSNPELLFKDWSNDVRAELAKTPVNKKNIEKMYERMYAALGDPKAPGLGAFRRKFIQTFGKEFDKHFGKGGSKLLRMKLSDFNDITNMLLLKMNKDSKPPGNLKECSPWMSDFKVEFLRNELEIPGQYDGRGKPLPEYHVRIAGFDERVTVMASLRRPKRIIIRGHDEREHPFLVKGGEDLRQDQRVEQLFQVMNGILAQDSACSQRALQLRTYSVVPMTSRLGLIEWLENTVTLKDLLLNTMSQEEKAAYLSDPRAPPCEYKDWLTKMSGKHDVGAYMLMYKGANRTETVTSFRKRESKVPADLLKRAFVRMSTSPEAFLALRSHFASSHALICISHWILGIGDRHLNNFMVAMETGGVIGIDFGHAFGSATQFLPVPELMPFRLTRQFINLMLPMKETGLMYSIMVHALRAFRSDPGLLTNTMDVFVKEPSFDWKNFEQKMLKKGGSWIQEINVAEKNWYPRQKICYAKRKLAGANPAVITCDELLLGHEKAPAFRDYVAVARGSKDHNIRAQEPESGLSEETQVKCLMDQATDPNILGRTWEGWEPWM
- assay name: Inhibition of DNA-PK (unknown origin)
pIC50: −log10 of the molar value.

Task: Look up pIC50 of CC(C)n1c(=O)n(C)c2cnc3cc(F)c(-c4ccc(OCCCN(C)C)nc4)cc3c21 and report it.
Result: < 4.50

Task: Look up pIC50 of COCc1ccc(-c2ccc3ncc4c(c3c2)n([C@@H]2CCOCC2(C)C)c(=O)n4C)cn1 and report it.
Result: 5.80

Task: Look up pIC50 of CC(C)n1c(=O)n(C)c2cnc3cc(F)c(-c4ccc(OCCCN5CCCCC5)nc4)cc3c21 [AZD-1390] and report it.
Result: < 4.50

* * *

# Lookup of reported solubility keyed by entry
- assay name: Aqueous solubility of the compound in pH 7.4
- Type: physicochemical
- experimental conditions: buffer
Kindly provide the numeric value in µM only, without the unit symbol.

Would you please look over these solved cases?
> print(dat)
                           substance.smiles  endpoint.value
1  CC(C)n1c(=O)n(C)c2cnc3cc(F)c(-c4ccc(OCCCN5CCCCC5)nc4)cc3c21             693
2  CC(C)n1c(=O)n(C)c2cnc3ccc(-c4ccc(N5CC[C@H](N(C)C)C5)nc4)cc3c21             137
3  CC(C)n1c(=O)n(C)c2cnc3cc(F)c(-c4ccc(N5CCN(C)CC5)nc4)cc3c21              17

Then there is this molecule:
Task: Look up solubility of CC(C)n1c(=O)n(C)c2cnc3ccc(-c4ccc(OCCCN5CCCCC5)nc4)cc3c21 and report it.
Result: 826

* * *

# Lookup of reported pIC50 keyed by entry
- measured target: Serine-protein kinase ATM (Homo sapiens, UniProt Q13315)
- assay name: Inhibition of ATM in human HT-29 cells incubated for 2 hrs by Alexa Fluor 488/Hoeschst staining based plate reader assay
Conceptually, pIC50 converts a concentration in mol/L into minus its log10.

> print(dat)
                                   molecule  quantity.measured  endpoint.value
1  CC(C)n1c(=O)n(C)c2cnc3cc(F)c(-c4ccc(OCCCN5CCCCC5)nc4)cc3c21 [AZD-1390]              pIC50            9.10

Then there is this molecule:
Task: Look up pIC50 of CC(C)n1c(=O)n(C)c2cnc3ccc(-c4ccc(OCCCN5CCCC5)nc4)cc3c21 and report it.
Result: 9.60

* * *

- assay name: Plasma protein binding in dog assessed as unbound fraction incubated for 16 hrs by equilibrium dialysis based UPLC-MS/MS analysis
- Assay type: ADME, cell-free, Canis lupus familiaris
# Lookup of reported fraction unbound at 16 h keyed by entry
Format: numeric value only, no unit, no commentary.

Would you please look over these solved cases?
> print(dat)
                           substance.smiles         quantity.measured  endpoint.value
1  CC(C)n1c(=O)n(C)c2cnc3cc(F)c(-c4ccc(OCCCN(C)C)nc4)cc3c21  fraction unbound at 16 h            0.42
2  CC(C)n1c(=O)n(C)c2cnc3ccc(-c4ccc(N5CC[C@@H](N(C)C)C5)nc4)cc3c21  fraction unbound at 16 h            0.26

Task: Look up fraction unbound at 16 h of CO[C@H]1C[C@H](n2c(=O)n(C)c3cnc4ccc(-c5ccc(OCCCN6CCCCC6)nc5)cc4c32)C1 and report it.
Result: 0.22

Task: Look up fraction unbound at 16 h of CC(C)n1c(=O)n(C)c2cnc3cc(F)c(-c4ccc(OCCCN5CCCCC5)nc4)cc3c21 and report it.
Result: 0.25

Task: Look up fraction unbound at 16 h of COCc1ccc(-c2ccc3ncc4c(c3c2)n([C@@H]2CCOCC2(C)C)c(=O)n4C)cn1 and report it.
Result: 0.23

* * *

- assay name: Intrinsic clearance in human hepatocyte assessed per 10^6 cells
- Format: ADME, cell-based
- experimental conditions: hepatocytes, read-out: CLH
Classify as follows. Reported hepatocyte CLint greater than or equal to 3 µL/min/1e6 cells: Condition met. Reported hepatocyte CLint below: Condition not met.

Some solved entries appear below for comparison.
> print(dat)
                           substance.smiles           category
1  COCc1ccc(-c2ccc3ncc4c(c3c2)n(C2CCOCC2)c(=O)n4C)cn1  Condition not met
2  CO[C@H]1C[C@H](n2c(=O)n(C)c3cnc4ccc(-c5ccc(OCCCN6CCCCC6)nc5)cc4c32)C1  Condition not met
3  COCc1ccc(-c2ccc3ncc4c(c3c2)n(C(C)C)c(=O)n4C)cn1      Condition met
4  CN(C)CCCOc1ccc(-c2ccc3ncc4c(c3c2)n([C@@H]2CCCOC2)c(=O)n4C)cc1      Condition met
5  CC(C)n1c(=O)n(C)c2cnc3ccc(-c4ccc(N5CC[C@@H](N(C)C)C5)nc4)cc3c21      Condition met
6  CC(C)n1c(=O)n(C)c2cnc3ccc(-c4ccc(N5CC[C@H](N(C)C)C5)nc4)cc3c21      Condition met
7  COCc1ccc(-c2ccc3ncc4c(c3c2)n([C@H]2CCCOC2)c(=O)n4C)cn1      Condition met
8  Cn1c(=O)n(C2CCOCC2)c2c3cc(-c4ccc(OCCCN5CCCCC5)cc4)ccc3ncc21  Condition not met

Task: Is the recorded value of hepatocyte CLint equal to or greater than 3 µL/min/1e6 cells for this compound? COCc1ccc(-c2ccc3ncc4c(c3c2)n([C@@H]2CCOCC2(C)C)c(=O)n4C)cn1
Result: Condition not met

* * *

- assay name: Unbound fraction in Cynomolgus monkey brain at iv administered as bolus injection measured at 4 to 90 mins by PET analysis
- Format: ADME, organism-based, Macaca fascicularis
- experimental conditions: time 4-90 min
quantity measured: fraction unbound
Format: numeric value only, no unit, no commentary.

> print(dat)
                           substance.smiles  quantity.measured  endpoint.value
1  CC(C)n1c(=O)n([11CH3])c2cnc3cc(F)c(-c4ccc(OCCCN(C)C)nc4)cc3c21   fraction unbound            0.02

Then there is this molecule:
Task: Look up fraction unbound of CC(C)n1c(=O)n([11CH3])c2cnc3cc(F)c(-c4ccc(OCCCN5CCCCC5)nc4)cc3c21 and report it.
Result: 0.01

* * *

# Lookup of reported half-life keyed by entry
- assay name: Half life in rat at 1 mg/kg,po or 0.5 mg/kg,iv administration measured for 24 hrs by LC-MS/MS analysis
- Type: ADME, organism-based
- experimental conditions: in vivo
Kindly provide the numeric value in h only, without the unit symbol.

Would you please look over these solved cases?
> print(dat)
                           substance.smiles  endpoint.value
1  COCc1ccc(-c2ccc3ncc4c(c3c2)n([C@@H]2CCOCC2(C)C)c(=O)n4C)cn1             1.1
2  CO[C@H]1C[C@H](n2c(=O)n(C)c3cnc4ccc(-c5ccc(OCCCN6CCCCC6)nc5)cc4c32)C1               4

Task: Look up half-life of CC(C)n1c(=O)n(C)c2cnc3cc(F)c(-c4ccc(OCCCN(C)C)nc4)cc3c21 and report it.
Result: 3.2

Task: Look up half-life of CC(C)n1c(=O)n(C)c2cnc3ccc(-c4ccc(N5CC[C@@H](N(C)C)C5)nc4)cc3c21 and report it.
Result: 2.9

* * *

- assay name: Intrinsic clearance in human hepatocyte assessed per 10^6 cells
- Assay type: ADME, cell-based
- experimental conditions: hepatocytes, read-out: CLH
quantity measured: hepatocyte CLint (µL/min/1e6 cells)
Kindly provide the numeric value in µL/min/1e6 cells only, without the unit symbol.

Would you please look over these solved cases?
> print(dat)
                           substance.smiles  quantity.measured  endpoint.value
1  CC(C)n1c(=O)n(C)c2cnc3ccc(-c4ccc(OCCCN(C)C)cc4)cc3c21   hepatocyte CLint              18
2  CC(C)n1c(=O)n(C)c2cnc3ccc(-c4ccc(O[C@H]5CCN(C)C5)nc4)cc3c21   hepatocyte CLint             6.2
3  CC(C)n1c(=O)n(C)c2cnc3ccc(-c4ccc(OCCCN5CCC(F)CC5)nc4)cc3c21   hepatocyte CLint             8.5
4  CC(C)n1c(=O)n(C)c2cnc3ccc(-c4ccc(OC[C@@H]5CCN(C)C5)nc4)cc3c21   hepatocyte CLint             5.7
5  COCc1ccc(-c2ccc3ncc4c(c3c2)n([C@H]2C[C@@H](CO)C2)c(=O)n4C)cn1   hepatocyte CLint             3.5
6  CC(C)n1c(=O)n(C)c2cnc3ccc(-c4ccc(OCCCN5CCCC5)nc4)cc3c21   hepatocyte CLint             2.6
7  CC(C)n1c(=O)n(C)c2cnc3cc(F)c(-c4ccc(OCCCN(C)C)nc4)cc3c21   hepatocyte CLint             6.7
8  CC(C)n1c(=O)n(C)c2cnc3ccc(-c4ccc(OCCN(C)C)nc4)cc3c21   hepatocyte CLint             6.1

Then there is this molecule:
Task: Look up hepatocyte CLint of CC(C)n1c(=O)n(C)c2cnc3ccc(-c4ccc(OCCCN(C)C)nc4)cc3c21 and report it.
Result: 5.2
